study.system: human B1R receptor (hB1R) (Homo sapiens, UniProt P46663)
Construct: host or cells: CHO K1 cells
Sequence (P46663 1-353): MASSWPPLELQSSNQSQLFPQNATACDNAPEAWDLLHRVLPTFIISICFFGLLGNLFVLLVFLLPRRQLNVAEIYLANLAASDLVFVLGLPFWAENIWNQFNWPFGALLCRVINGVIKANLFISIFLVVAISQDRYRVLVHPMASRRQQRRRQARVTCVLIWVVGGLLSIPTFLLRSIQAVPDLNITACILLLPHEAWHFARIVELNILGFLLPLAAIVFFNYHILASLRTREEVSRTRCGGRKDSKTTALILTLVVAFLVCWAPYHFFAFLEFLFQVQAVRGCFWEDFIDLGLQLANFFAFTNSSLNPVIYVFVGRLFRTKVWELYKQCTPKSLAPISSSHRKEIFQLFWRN
assay.notes: FLIPR Ca2+ assay (Fluo-4) on CHO K1 cells stably transfected with the human B1R gene
Format: cell-based
protocol.conditions: CHO-K1; test substance 10 μM; agonist Lys-Des-Arg9-bradykinin 0.5 nM; % inhibition compared to the maximum achievable inhibition
measurement.label: inhibition at 10 µM (%)

Use the examples below as a reference point.
molecule	measurement.label	test.result
Cc1cc(S(=O)(=O)N2CCCCC2CCC(=O)N2CCn3c(CN4CCCC4)ccc3C2)c(C)cc1Cl (centres unmarked)	inhibition at 10 µM	104
COc1cc(C)c(S(=O)(=O)N2CCCCC2COCC(=O)N2CCn3cnnc3C2)c(C)c1 (centres unmarked)	inhibition at 10 µM	56
COc1cc(C)c(S(=O)(=O)N2CCCCC2CCC(=O)N2CCn3cc(-c4ccncc4)nc3C2)c(C)c1 (centres unmarked)	inhibition at 10 µM	79
COc1cc(C)c(S(=O)(=O)N2CCCCC2COCC(=O)N2CCn3cccc3C2c2ccccc2)c(C)c1 (centres unmarked)	inhibition at 10 µM	99
Cc1cc(C)c(S(=O)(=O)N2CCCCC2COCC(=O)N2CCn3c(CN4CCCCC4)ccc3C2c2ccccc2)c(C)c1 (centres unmarked)	inhibition at 10 µM	103

I = Cc1cc(S(=O)(=O)N2CCCCC2CCC(=O)N2CCn3c(CCCN4CCCC4)ccc3C2)c(C)cc1Cl (centres unmarked)
II = O=C(CC1CCCCN1S(=O)(=O)c1cccc(C(F)(F)F)c1)N1CCn2cc(-c3ccncc3)nc2C1 (centres unmarked)
Exercise: Of I versus II , which is the one with smaller reported inhibition at 10 µM? Reply with the label of the item you choose.
Key: II

Cited source for all entries: patent US8178535B2
